Tested on: CEM cells HIV-1 protection, formazan growth assay
Experiment: NCI AIDS Antiviral Assay
Conditions: measured here: growth of uninfected CEM cells

- Molecule: "COC1(C)C(=O)N2C1N(C(=O)OCc1ccccc1)CC2(C)C (stereo not given)"
  System Under Test: "CEM cells HIV-1 protection, formazan growth assay"
  Readout Unit: "µM"
  Qualifier Operator: ">"
  IC50: 251
- Molecule: "CCCCCCCCCCOCC(COCCOCC(COCCCCCCCCCC)OCCCS(=O)(=O)O)OCCCS(=O)(=O)O (stereo not given)"
  System Under Test: "CEM cells HIV-1 protection, formazan growth assay"
  Readout Unit: "µM"
  Qualifier Operator: "="
  IC50: 107
- Molecule: "COCCNC1CCC(=O)c2[nH]c3ccccc3c21 (stereo not given)"
  System Under Test: "CEM cells HIV-1 protection, formazan growth assay"
  Readout Unit: "µM"
  Qualifier Operator: ">"
  IC50: 200
- Molecule: "CCOP(=O)(OCC)/C(=C\\NC(=S)N=Nc1c(O)[nH]c2ccccc12)C(=O)OC"
  System Under Test: "CEM cells HIV-1 protection, formazan growth assay"
  Readout Unit: "µM"
  Qualifier Operator: "="
  IC50: 117
- Molecule: "CCOC(=O)C1=C(O)c2ccccc2S(=O)(=O)N1C (tested in a mixture with another compound)"
  System Under Test: "CEM cells HIV-1 protection, formazan growth assay"
  Readout Unit: "µM"
  Qualifier Operator: "="
  IC50: 110
- Molecule: "COC(=O)c1c2c(cc3c1CCC3)CCC2"
  System Under Test: "CEM cells HIV-1 protection, formazan growth assay"
  Readout Unit: "µM"
  Qualifier Operator: ">"
  IC50: 200
- Molecule: "CC(C)C1=CC2=CC(=O)C3C(C)(C)CCCC3(C)C2=C(O)C1=O (stereo not given)"
  System Under Test: "CEM cells HIV-1 protection, formazan growth assay"
  Readout Unit: "µM"
  Qualifier Operator: "="
  IC50: 4.07
- Molecule: "COc1ccc(N2C(=O)C3c4[nH]c5ccc(OCc6ccccc6)cc5c4C4CCC(C(C)(C)C)CC4C3C2=O)cc1 (stereo not given)"
  System Under Test: "CEM cells HIV-1 protection, formazan growth assay"
  Readout Unit: "µM"
  Qualifier Operator: "="
  IC50: 16.6
- Molecule: "NC(N)=Nc1nn[nH]n1"
  System Under Test: "CEM cells HIV-1 protection, formazan growth assay"
  Readout Unit: "µM"
  Qualifier Operator: ">"
  IC50: 200
- Molecule: "COc1cc2cc(C(=O)N3CC(CCl)c4ccc(N(C)C)cc43)[nH]c2c(OC)c1OC (stereo not given)"
  System Under Test: "CEM cells HIV-1 protection, formazan growth assay"
  Readout Unit: "µM"
  Qualifier Operator: "="
  IC50: 0.138

###

Test system: CEM cells HIV-1 protection, formazan growth assay
Assay: NCI AIDS Antiviral Assay

- Compound: "Nc1ncnc2c1ncn2C1OC(COC2C(O)C(OC3OC(CO)C(O)C(O)C3N)C(O)C(OS(=O)(=O)O)C2OC(=O)[C@@H](N)CO)C(O)C1O (stereo not given in full)"
  EC50: "> 200 µM"
- Compound: "CC(=O)OC12c3ccccc3C1CCCC21OCCCO1 (stereo not given)"
  EC50: "> 200 µM"
- Compound: "C[C@@H]1C[C@H]2[C@@H]3C[C@H](F)C4=CC(=O)C=C[C@]4(C)[C@@]3(F)[C@@H](O)C[C@]2(C)C1C(=O)COC(=O)c1cccc2c(=O)c3ccccc3[nH]c12 (stereo not given in full)"
  EC50: "> 100 µM"
- Compound: "Cc1nnn[n-]1.N.N.N.N.N.[Cl-].[Co+3]"
  EC50: "> 832 µM"
- Compound: "O=C(O)C12CCCCC1CCCC2 (stereo not given)"
  EC50: "> 372 µM"
- Compound: "CC(C)=CC(C(O)c1ccccc1)S(=O)(=O)c1nccn1C (stereo not given)"
  EC50: "> 407 µM"
- Compound: "O=c1[nH]c(=O)n(C2CCC(COP(=O)(O)O)O2)cc1Cc1ccccc1 (stereo not given)"
  EC50: "> 468 µM"
- Compound: "N#Cc1ccccc1/C=N/O"
  EC50: "> 35.5 µM"
- Compound: "Cn1c(=O)c(Cc2c(O)c3ccccc3n(C)c2=O)c(O)c2ccccc21"
  EC50: "> 7.24 µM"
- Compound: "CC1c2c(Cl)nc3ccccc3c2Oc2c1c(Cl)nc1ccccc21"
  EC50: "> 14.1 µM"
